Target: T1, 人CD38胞外段Flag标签蛋白 hCD38-ECD-Flag (human, UniProt P28907 43-300)
T1 construct: range 43-300; No linker between CD38 and the tag is stated; also called hCD38-Flag
T1 sequence: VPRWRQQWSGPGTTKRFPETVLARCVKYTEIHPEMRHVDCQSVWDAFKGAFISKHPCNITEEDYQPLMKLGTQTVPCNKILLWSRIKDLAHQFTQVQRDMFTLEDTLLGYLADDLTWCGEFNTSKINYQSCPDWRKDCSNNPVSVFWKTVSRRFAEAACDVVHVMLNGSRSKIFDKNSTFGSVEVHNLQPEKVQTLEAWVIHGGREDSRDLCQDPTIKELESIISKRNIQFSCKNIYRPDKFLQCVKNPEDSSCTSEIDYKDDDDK
Assay: SPR, Biacore T200; antibody captured on Protein A CM5 chip, hCD38-Flag as analyte
For each entry below, report its kon value.
Give the value, in units of M⁻¹ s⁻¹, as a plain number.

response.value for 人源化抗人CD38单克隆抗体116H (antibody, human IgG1, kappa, V domains shown, also called 116号抗体的人源化抗体) VH: QVTLKESGPALVKPTQTLTLTCTLSGFSLSTSRMGVGWIRQPPGKGLEWLAHIWWDDDKRYNPALKSRLTISKDTSSNQVFLKIASVDKEDTATYYCGRIEVGRGAWFAYWGQGTLVTVSS VL: EIVLTQSPATLSLSPGERVSVTCKASQDVVTTVAWYQQKPGQAPRTLIYSASYRYSGVPARFSGSGSGTDFTLTISSLEPEDFAVYYCQQYYTYPFTFGQGTKVEIKR (field: kon) = 1.47e+06

response.value for 人源化抗人CD38单克隆抗体57H (antibody, human IgG1, kappa, V domains shown, also called 57号抗体的人源化抗体) VH: EVQLVESGGGLVQPGGSLRLSCAASGFTFSSFGMHWVRQAPGKGLEWVAYIGGDSNIIYYADTVKGRFTISRDNSKNTLYLQMNSLRAEDTAVYYCAKSHDYTMDYWGQGTLVTVSS VL: DIVMTQSPSSLAVSLGERVTITCKSSQSLLYSTNQKNYLAWFQQKPGQSPKLLIYWASTRESGVPDRFSGSGSGTDFTLTISSLQAEDVAVYYCQRYYNYPYTFGQGTKVEIKR (field: kon) = 264000

response.value for 人源化抗人CD38单克隆抗体145H (antibody, human IgG1, kappa, V domains shown, also called 145号抗体的人源化抗体) VH: QVQLVQSGAEVKKPGASVKVSCKASGYTFTNYLIDWVRQAPGQGLEWIGLINPGSGSTKYNEKFKGRVTLTADKSTSTAYMELSSLRSEDTAVYYCAKTGTLPYWGQGTLVTVSS VL: DIQMTQSPSSLSASVGDRVTITCKASQNVGTSVAWYQQKPGKAPKLLIYSTSYRSSGVPSRFSGSGSGTDFTLTISSLQPEDFATYYCQQYGSYPLTFGQGTKVEIKR (field: kon) = 612000

Taken from patent CN114437215A.
